Listing: kon of selected binders
# system: T1, monkey Trop2 protein (Sino Biological, #90893-C08H) (monkey, UniProt A0A2K5UE71 27-274)
# T1 construct: bought protein; also called monkey Trop2 protein antigen (His tag)
# T1 sequence: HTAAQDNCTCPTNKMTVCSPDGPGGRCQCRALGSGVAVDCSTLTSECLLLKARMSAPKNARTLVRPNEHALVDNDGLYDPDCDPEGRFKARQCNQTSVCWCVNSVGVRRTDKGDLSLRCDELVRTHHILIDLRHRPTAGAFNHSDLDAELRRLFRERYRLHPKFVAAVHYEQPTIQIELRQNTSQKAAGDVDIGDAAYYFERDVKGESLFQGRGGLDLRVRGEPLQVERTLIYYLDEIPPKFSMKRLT
# test details: BLI, Octet RED96, AHC sensor
Hi! Could you send only the number? It should be in M⁻¹ s⁻¹, unit omitted.

PR001134 (antibody, human IgG1, kappa, V domains shown, fully human IgG1/kappa; also called antibody No. (6)) VH: QVQLVESGGGVVQPGRSLRVSCIASGFFFSSYGMHWVRQAPGKGLEWVAVIWYDGSNEDYVDSVKGRFTISRDNSKNTLYLQMNSLRGEDTAMYYCARGGYNSGWWAFDIWGQGTMVTVSS VL: DIQMTQSPSSLSASVGDRVTITCRASQGISHFLAWYQQKPGKVPKLLIYAASTLQSGVPSRFSGSGSGTDFTLTISSLQPEDVATYYCQKFNSAPLTFGGGTKVEIKR; 54900
PR001153 (antibody, human IgG1, kappa, V domains shown, fully human IgG1/kappa; also called antibody No. (16)) VH: QVQLQESGPGLVKPSGTLSLTCAVSGGSISSSNWWSWVRQPPGKGLEWIGEIYHDGSTDYNPSLKSRVIISVDKSKNQFSLKVRSVTAADTAVYYCARDNWGFDYWGQGTLVTVSS VL: EIVLTQFPGTLSLSPGERATLSCRSSQSVSSSYLAWYQQKPGQAPRLLISGASSRATGIPDRFSGSGSGTDFTLTISRLEPEDFAVYYCQQYGSSPRTFGQGTKVEIKR; 59300
PR001128 (antibody, human IgG1, kappa, V domains shown, fully human IgG1/kappa; also called antibody No. (1)) VH: QVQLQESGPGLVKPSGTLSLTCAVSGGSISSSNWWSWVRQPPGKGLEWIGEIFHSGTTYYNPSLKSRVTILVDKSKNQFSLKLSSVTAADTAVYYCARDNTKSWDHFDHWGQGTLVTVSS VL: EIVLTQSPATLSLSPGERATLSCRASQSVGSYLAWYQQKPGQAPSLLIYDASNRATGIPARFSGSGSGTDFTLTISSLEPEDFAVYYCQQRTNWYTFGQGTKLEIKR; 83500
PR001164 (antibody, human IgG1, kappa, V domains shown, fully human IgG1/kappa; also called antibody No. (25)) VH: QVQLQQSGPGLVKPSQTLSLTCAISGDSVSSTSAVWNWIRQSPSRGLEWLGRTCYRSKWYNDYAVSVKSRITITPDTSKNQFSLRLNPVTPEDTAVYYCARGDFRFDSWGQGTLVTVSS VL: DIQLTQSPSFLSASVGDRVTITCRASQGISSYLAWYQQKPGKAPKLLIYAASTLQSGVPSRFSGSGSGTEFTLTISSLQPEDFATYYCQQVKIYPLTFGGGTKVEIKR; 79400
PR001166 (antibody, human IgG1, kappa, V domains shown, fully human IgG1/kappa; also called antibody No. (27)) VH: QVQLQESGPGLVKPSETLSLTCAVSGYSISSGYFWAWIRQPPGKGLEWIGSIYHSGRTHYNPSLKSRVIISLDTSKNQFSLKLRSVTAADSAVYYCAREGYASGSYYWGQGTLVTVSS VL: EIVMTQSPATLSVSPGERATLSCRSSQSVNNYLAWFQQKPGQAPRLLIYDSSTRATGIPARFSGSGSGTEFTLTISSLQSEDFAFYFCQQYENWPLTFGGGTKVEIKR; 316000

// kon lookup, binder = PR001155 (antibody, human IgG1, kappa, V domains shown, fully human IgG1/kappa; also called antibody No. (18)) VH: QVQLVQSGGGVVQPGRSLRLSCAASGFTFSHYGMHWVRQAPGKGLEWVAVIWYDGIKKYYVESVKGRFTISRDNSKNTLYLQMNRLRAEDTAVYYCARDGGFGELNYYGLDVWGQGTTVTVSS VL: DIQLTQSPSFLSASVGDRVTITCRASQGISSYLGWYQQKPGKAPKLLIYVASTLQSGVPSRFSGSGSGTEFTLTISSLQPEDFATYYCQQLNSYPYTFGQGTKLEIKR , result: 51500

All values here come from patent US20240067748A1.
